Reported log10(kcat) values for the following variants.
B1: glmS ribozyme (parent)
chain: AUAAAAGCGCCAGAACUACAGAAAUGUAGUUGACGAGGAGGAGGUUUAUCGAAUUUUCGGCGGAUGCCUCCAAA

Variants of: B1
Test: kcat; higher = faster cleavage; RNA array
Conditions: with glucosamine-6-phosphate
Fewer inactive variants are shown than the library holds.
MEASURED_METRIC: log10(kcat) (log10 of the value in s⁻¹)

# ITEM_SEQUENCE, log10(kcat)
data = [
    ("AUAAAAGCGCCAGAAAUACAGAAAUGUAGUUGACGAGGAGGAGGUGUAUCGAAUUUUCGGCGGAUGCCUCCAAA", -3.55),
    ("AUAAAAGCGCCAGUACUACAGAAAUGUAGUAGACGAGGAGGAGGUUUAUCGAAUUUUCGGCGGAUGCCUCCAAA", -1.78),
    ("AUAAAAGCGCCAGAACUACAGAAAUGUAGUUUACGAGGAUGAGGUUUAUCGAAUUUUCGGCGGAUGCCUCCAAA", -3.58),
    ("AUAAAAGCGCCAGAACUACAGAAAUGUAGGUGACGAGGAGGAGGUUUAUCGAAUUUUCGGCGGAUGCCUGCAAA", -3.87),
    ("AUAAAAGCGCCAGAACUACAGAAAUGUAGUGGACGAGGAGCAGGUUUAUCGAAUUUUCGGCGGAUGCCUCCAAA", -3.76),
]
